Target: Gal(a1-3)Gal(b1-3)GlcNAc(b1-3)GalNAc
Assay: glycan array binding signal (z-score within array); higher = stronger binding
Settings: glycan notation: IUPAC condensed, linker removed
The sample as a whole holds a higher share of the strongest signals than the screen did.
Recorded measurements of glycan array binding signal (z-score), one per entry
Number, no unit, nothing else.

For orientation, consider the following solved cases.
{"binder": "CFEM-PPl (Pichia pastoris), F2QPV1 (protein) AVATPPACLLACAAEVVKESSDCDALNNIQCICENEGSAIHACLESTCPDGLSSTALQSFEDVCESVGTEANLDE", "measurement type": "glycan array binding signal (z-score)", "reading": -0.151}
{"binder": "CrataBL (Crataeva tapia), C0HJA4 (protein) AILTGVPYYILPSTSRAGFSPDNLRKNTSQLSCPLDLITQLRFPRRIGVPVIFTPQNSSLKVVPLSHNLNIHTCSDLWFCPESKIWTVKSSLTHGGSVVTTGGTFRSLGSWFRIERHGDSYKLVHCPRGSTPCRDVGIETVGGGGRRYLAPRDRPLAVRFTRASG", "measurement type": "glycan array binding signal (z-score)", "reading": -0.383}

Inquiry: In one line, give reported glycan array binding signal (z-score) of the entry Si Bti9 1b-HA (Solanum lycopersicum) (protein) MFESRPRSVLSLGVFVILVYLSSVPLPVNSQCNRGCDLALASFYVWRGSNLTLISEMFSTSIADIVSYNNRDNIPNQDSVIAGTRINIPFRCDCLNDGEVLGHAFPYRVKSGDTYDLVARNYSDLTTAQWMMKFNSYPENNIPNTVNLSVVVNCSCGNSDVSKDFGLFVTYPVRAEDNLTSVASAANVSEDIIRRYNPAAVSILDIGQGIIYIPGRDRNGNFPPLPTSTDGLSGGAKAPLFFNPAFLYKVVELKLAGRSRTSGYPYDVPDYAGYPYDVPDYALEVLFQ .
Reply text: 0.207
